Biological target: 5-hydroxytryptamine receptor 1A (Rattus norvegicus) (UniProt P19327)
Sequence (P19327 whole entry): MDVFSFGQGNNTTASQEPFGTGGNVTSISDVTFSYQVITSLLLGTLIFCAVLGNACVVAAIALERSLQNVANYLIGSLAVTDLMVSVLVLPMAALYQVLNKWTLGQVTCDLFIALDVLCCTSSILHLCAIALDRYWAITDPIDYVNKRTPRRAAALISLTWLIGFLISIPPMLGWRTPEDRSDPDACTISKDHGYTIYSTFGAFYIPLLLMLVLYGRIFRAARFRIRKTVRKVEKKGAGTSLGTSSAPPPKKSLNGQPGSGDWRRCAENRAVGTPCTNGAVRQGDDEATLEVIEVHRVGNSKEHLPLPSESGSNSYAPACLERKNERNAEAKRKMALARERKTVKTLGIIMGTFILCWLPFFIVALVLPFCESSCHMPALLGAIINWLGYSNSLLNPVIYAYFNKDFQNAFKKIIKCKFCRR
Test: Antagonistic activity against 5-hydroxytryptamine 1A receptor in rat cerebral cortex using [3H]-8-OH-DPAT as radioligand.
Type: functional, tissue-based

compound	pK1
Cc1ccccc1N1CCN(CCCN2C(=O)C3CCCCN3C2=O)CC1 (stereo unspecified)	6.66
N#Cc1ccccc1N1CCN(CCCCN2CC(=O)N3CCCCC3C2=O)CC1 (stereo unspecified)	7.82
CC(C)C(=O)Nc1cccc(N2CCN(CCCCN3C(=O)C4CCCN4C3=O)CC2)c1 (stereo unspecified)	6.72
CCCNC(=O)c1ccccc1N1CCN(CCCCN2C(=O)C3CCCCN3C2=O)CC1 (stereo unspecified)	6.42
O=C1C2CCCN2C(=O)N1CCCN1CCN(c2cccc(Br)c2)CC1 (stereo unspecified)	7.47
Cc1ccccc1N1CCN(CCCN2CC(=O)N3CCCCC3C2=O)CC1 (stereo unspecified)	6.84
CCCNC(=O)c1ccccc1N1CCN(CCCCN2CC(=O)N3CCCC3C2=O)CC1 (stereo unspecified)	5.91
Cc1ccccc1N1CCN(CCCN2CC(=O)N3CCCC3C2=O)CC1 (stereo unspecified)	7.31
CCCNC(=O)c1ccccc1N1CCN(CCCN2CC(=O)N3CCCCC3C2=O)CC1 (stereo unspecified)	5.34
CC(C)C(=O)Nc1cccc(N2CCN(CCCCN3CC(=O)N4CCCCC4C3=O)CC2)c1 (stereo unspecified)	6.7
CC(C)C(=O)Nc1cccc(N2CCN(CCCN3C(=O)C4CCCCN4C3=O)CC2)c1 (stereo unspecified)	6.11

---

Target: Adrenergic receptor alpha-1 (Rattus norvegicus) (UniProt P15823+P23944+P43140)
Test: Antagonistic activity against alpha-1 adrenergic receptor in rat cerebral cortex using [3H]prazosin as radioligand.
Type: functional, tissue-based
Here, each record is paired with measured pK2 data.
experimental-endpoint: pK2

compound	reported-measurement
CC(C)C(=O)Nc1cccc(N2CCN(CCCCN3C(=O)C4CCCN4C3=O)CC2)c1 (configuration not stated)	5.27
Cc1ccccc1N1CCN(CCCN2CC(=O)N3CCCC3C2=O)CC1 (configuration not stated)	7.76
CCCCOc1ccccc1N1CCN(CCCN2CC(=O)N3CCCCC3C2=O)CC1 (configuration not stated)	7.89
Cc1ccccc1N1CCN(CCCN2CC(=O)N3CCCCC3C2=O)CC1 (configuration not stated)	7.53
CC(C)C(=O)Nc1cccc(N2CCN(CCCN3CC(=O)N4CCCC4C3=O)CC2)c1 (configuration not stated)	5.84
CCCCOc1ccccc1N1CCN(CCCCN2CC(=O)N3CCCC3C2=O)CC1 (configuration not stated)	7.98
N#Cc1ccccc1N1CCN(CCCN2C(=O)C3CCCCN3C2=O)CC1 (configuration not stated)	8.09

---

Target: Adrenergic receptor alpha-1 (Rattus norvegicus) (UniProt P15823+P23944+P43140)
Assay: Antagonistic activity against alpha-1 adrenergic receptor in rat cerebral cortex using [3H]prazosin as radioligand.
Type: functional, tissue-based
experimental-endpoint: K2 (nM)

molecule	experimental-endpoint	reported-measurement
CCCCOc1ccccc1N1CCN(CCCCN2CC(=O)N3CCCC3C2=O)CC1 (stereo not given)	K2	10.5
Cc1ccccc1N1CCN(CCCCN2CC(=O)N3CCCCC3C2=O)CC1 (stereo not given)	K2	27
Nc1cccc(N2CCN(CCCN3C(=O)C4CCCN4C3=O)CC2)c1 (stereo not given)	K2	393
CCCNC(=O)c1ccccc1N1CCN(CCCN2CC(=O)N3CCCCC3C2=O)CC1 (stereo not given)	K2	811
N#Cc1ccccc1N1CCN(CCCCN2CC(=O)N3CCCCC3C2=O)CC1 (stereo not given)	K2	30
CCCOC(=O)c1ccccc1N1CCN(CCCCN2C(=O)C3CCCN3C2=O)CC1 (stereo not given)	K2	41
Cc1ccccc1N1CCN(CCCCN2C(=O)C3CCCN3C2=O)CC1 (stereo not given)	K2	7
CCCNC(=O)c1ccccc1N1CCN(CCCCN2CC(=O)N3CCCC3C2=O)CC1 (stereo not given)	K2	1350
Cc1ccccc1N1CCN(CCCN2CC(=O)N3CCCC3C2=O)CC1 (stereo not given)	K2	17
CC(C)C(=O)Nc1cccc(N2CCN(CCCCN3C(=O)C4CCCN4C3=O)CC2)c1 (stereo not given)	K2	5420
